Assayed System: nucleoside hydrolase (Crithidia fasciculata)
Construct: nucleoside hydrolase was purified from C. fasciculata as described above; endogenous in cells; host or cells: Crithidia fasciculata cells grown in a 300-liter fermenter
Sequence (Q27546 whole entry): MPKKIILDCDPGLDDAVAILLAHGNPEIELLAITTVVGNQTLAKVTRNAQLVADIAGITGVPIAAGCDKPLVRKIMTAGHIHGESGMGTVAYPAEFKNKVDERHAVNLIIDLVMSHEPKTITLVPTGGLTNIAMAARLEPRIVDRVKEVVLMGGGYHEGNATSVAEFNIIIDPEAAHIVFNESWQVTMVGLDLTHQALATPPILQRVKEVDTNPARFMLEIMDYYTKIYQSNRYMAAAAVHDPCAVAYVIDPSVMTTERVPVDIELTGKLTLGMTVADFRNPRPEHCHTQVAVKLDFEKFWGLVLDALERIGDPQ
Measurement Notes: Nucleoside hydrolase purified from C. fasciculata: substrate kinetics and inhibition (Table III)
Format: biochemical
Method: The assay volumes were […]. The reaction was terminated by the addition of […] of 1.0 M HCl. […] The color was developed at 95° C. for 8 minutes and the optical absorbance measured at 450 nm. Enzymatic activity was expressed as millimoles of reducing sugar formed per minute per milligram of protein. […] Arsenate readily replaces phosphate in the reaction and the product ribose 1-arsenate rapidly hydrolazes to release ribose which is detected in the reducing sugar assay. […]
Experimental Readout: pKi
Just so you know, pKi here is -log10 of the concentration in molar units; reply with that number alone.

A selection of reference data follows.
O=C[C@H](O)[C@H](O)[C@H](O)CO 3.15
Nc1ncnc2c1ncn2[C@@H]1O[C@H](CO)C[C@H]1O 2.14

Name the recorded pKi of Nc1ncnc2c1ncn2[C@@H]1O[C@H](COP(=O)(O)O)[C@@H](O)[C@H]1O , assay system nucleoside hydrolase (Crithidia fasciculata).
1.36

Name the recorded pKi of Nc1ncnc2c1ccn2[C@@H]1O[C@H](CO)[C@@H](O)[C@H]1O , assay system nucleoside hydrolase (Crithidia fasciculata).
2.64

Provide measured pKi on nucleoside hydrolase (Crithidia fasciculata) for Cc1cn([C@H]2C[C@H](O)[C@@H](CO)O2)c(=O)[nH]c1=O please.
2.11

###

Assayed System: IU-nucleoside hydrolase (Crithidia fasciculata, UniProt Q27546, P2A)
Construct: contained the coding region for the enzyme; made in house; host or cells: E. coli BL21 (DE3)pLysS, pET3d plasmid
Sequence (Q27546 whole entry P2A): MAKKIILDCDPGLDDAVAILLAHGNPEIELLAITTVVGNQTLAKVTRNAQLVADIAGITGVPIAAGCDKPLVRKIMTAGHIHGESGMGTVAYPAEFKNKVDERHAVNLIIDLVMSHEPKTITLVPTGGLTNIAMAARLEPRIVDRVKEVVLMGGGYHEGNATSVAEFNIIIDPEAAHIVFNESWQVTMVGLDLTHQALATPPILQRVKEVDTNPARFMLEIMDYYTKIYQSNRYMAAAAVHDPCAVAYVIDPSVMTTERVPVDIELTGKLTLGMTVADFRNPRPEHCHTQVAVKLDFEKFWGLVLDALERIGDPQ
Measurement Notes: biochemical
Type: biochemical, C. fasciculata
Study Conditions: inhibition constant IU-enzyme, text b399, unit inferred
Text: Enzymes. Inosine-uridine nucleoside hydrolase (IU-nucleoside hydrolase) was purified from extracts of E. coli strain BL21 (DE3)pLysS which contained the coding region for the enzyme isolated from C. fasciculata in a pET3d expression plasmid. The DNA coding for the enzyme was placed in the NcoI-BamHI site. […] Enzyme Assays. […] Reaction mixtures with nitrophenylribose as substrate were initiated by the addition of enzyme, and product formation was monitored by continuous recording at 400 nm. […]
Experimental Readout: Ki (µM)
Give a bare numeral; the unit µM is implied.

For IU-nucleoside hydrolase (Crithidia fasciculata, UniProt Q27546, P2A), give Ki of the listed molecule: OC[C@H]1O[C@@H](c2ccccc2)[C@H](O)[C@@H]1O [XIII, 1-deoxy-1-C-phenyl-β-D-ribofuranose, reference compound]
1600

###

Assayed System: IU-nucleoside hydrolase (Crithidia fasciculata, UniProt Q27546, P2A)
Construct: contained the coding region for the enzyme; made in house; host or cells: E. coli BL21 (DE3)pLysS, pET3d plasmid
Measurement Notes: biochemical
Format: biochemical, C. fasciculata
Study Conditions: Ki IU-nucleoside hydrolase, Table VI; 58 μM nitrophenylriboside, 50 mM Hepes, pH 8.0
Experimental Readout: Ki (µM)
Write down the numeric answer in µM and omit the unit.

# assay system IU-nucleoside hydrolase (Crithidia fasciculata, UniProt Q27546, P2A): give Ki of OC[C@H]1O[C@@H](c2ccccc2)[C@H](O)[C@@H]1O [XIII, 1-deoxy-1-C-phenyl-β-D-ribofuranose, reference compound]
600
